target: TYK2-JH2 (aa 575-869, in-house) protein (Homo sapiens, UniProt P29597); construct: TYK2-JH2 (aa 575-869, in-house) protein; made in house; assay: TYK2-JH2 biochemical assay (HTRF probe displacement); type: binding; details: Biochemical assay; read-out: TYK2-JH2 IC50
Sequence (P29597 575-869): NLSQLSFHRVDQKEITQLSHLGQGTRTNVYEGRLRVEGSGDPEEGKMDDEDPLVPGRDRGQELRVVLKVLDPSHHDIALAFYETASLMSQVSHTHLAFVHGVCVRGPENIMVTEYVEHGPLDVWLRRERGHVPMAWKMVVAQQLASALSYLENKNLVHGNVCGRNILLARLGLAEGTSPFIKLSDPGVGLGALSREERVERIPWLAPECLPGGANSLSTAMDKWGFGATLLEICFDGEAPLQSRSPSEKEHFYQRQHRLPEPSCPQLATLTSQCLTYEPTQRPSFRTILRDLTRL
# Lookup of reported IC50 keyed by entry
Kindly provide the numeric value in nM only, without the unit symbol.

Here's what some known entries look like.
Compound	Measured target	Unit label	IC50
CCS(=O)(=O)c1cccc(Nc2cc(NC(C)=O)ncc2-c2ccn(C)n2)n1 [Example J5]	TYK2-JH2 (aa 575-869, in-house) protein (Homo sapiens, UniProt P29597)	nM	0.022
COCc1cc(Nc2cc(NC(C)=O)ncc2-c2ccc(C(C)(C)O)cn2)cc(S(C)(=O)=O)c1 [Example H16]	TYK2-JH2 (aa 575-869, in-house) protein (Homo sapiens, UniProt P29597)	nM	0.028
CC(=O)Nc1cc(Nc2cc(N3CC[C@@H](OCCO)C3)cc(S(C)(=O)=O)n2)c(-c2ccc3c(n2)OCC(C)(C)O3)cn1 [Example Q59]	TYK2-JH2 (aa 575-869, in-house) protein (Homo sapiens, UniProt P29597)	nM	0.033

Query string: Please report the measured IC50 for CC(=O)Nc1cc(Nc2cc(N3CCOCC3)cc(S(C)(=O)=O)n2)c(-c2ccc3c(n2)OCC(C)(C)O3)cn1 [Example Q22]
Result string: 0.025

Query string: Give a short answer stating reported IC50 for CC(=O)Nc1cc(Nc2cc(N3CC[C@H](OCCO)C3)cc(S(C)(=O)=O)n2)c(-c2ccc3c(n2)OCC(C)(C)O3)cn1 [Example Q61] .
Result string: 0.022

Query string: Indicate its recorded IC50; the compound in question is CO[C@H]1CCCN(c2cc(Nc3cc(NC(C)=O)ncc3-c3ccc4c(n3)OCC(C)(C)O4)nc(S(C)(=O)=O)c2)C1 [Example Q65]
Result string: 0.029

Query string: Return the recorded IC50 value; entry: CCn1ccc(-c2cnc(NC(C)=O)cc2Nc2cc(OCC3CC3)cc(S(C)(=O)=O)c2)n1 [Example M16]
Result string: 0.048

Query string: Answer with reported IC50 of CC(=O)Nc1cc(Nc2cc(C(F)(F)F)cc(S(C)(=O)=O)c2)c(-c2ccn(C(C)C)n2)cn1 [Example M25]
Result string: 0.096

----------
biological target: TYK2-JH2 (aa 575-869, in-house) protein (Homo sapiens, UniProt P29597); construct: TYK2-JH2 (aa 575-869, in-house) protein; made in house; assay: TYK2-JH2 biochemical assay (HTRF probe displacement); assay type: binding; details: Biochemical assay; read-out: TYK2-JH2 IC50
Assay readout: pIC50
Hey, just a heads up that pIC50 is the negative log base 10 of the concentration in molar.

Look over these answered cases.
Compound	pIC50
COC1CC(Oc2cc(Nc3cc(NC(C)=O)ncc3-c3ccc(C(C)(C)O)cn3)nc(S(C)(=O)=O)c2)C1 (stereo not drawn)	10.66
CC(=O)Nc1cc(Nc2cc(OCC(O)CO)cc(S(C)(=O)=O)n2)c(-c2ccn(C)n2)cn1 (stereo not drawn)	10.46
CC(=O)Nc1cc(Nc2cc(C)cc(S(C)(=O)=O)n2)c(-c2ccc(C(C)(C)N)cn2)cn1	10.52
CC(=O)Nc1cc(Nc2cccc(S(=O)(=O)C(C)C)n2)c(-c2ccn(C)n2)cn1	10.35
COCCOc1ccc(-c2cnc(NC(C)=O)cc2Nc2cc(OCC3CC3)cc(S(C)(=O)=O)c2)nc1	10.28

Query string: Please look at this compound and report its pIC50: CCOc1cc(Nc2cc(NC(C)=O)ncc2-c2ccc(F)cn2)nc(S(C)(=O)=O)c1
Result string: 10.44

Query string: Specify reported pIC50 for the compound shown: CC(=O)Nc1cc(Nc2ccc(F)c(S(C)(=O)=O)n2)c(-c2ccc(C(C)(C)O)cn2)cn1
Result string: 10.64

Query string: Fill in reported pIC50 for this entry: CC(=O)Nc1cc(Nc2cc(OC(C)C)cc(S(C)(=O)=O)n2)c(-c2ccc3c(n2)OCCO3)cn1
Result string: 10.64

Query string: State its pIC50 for this compound: COCc1cc(Nc2cc(NC(C)=O)ncc2-c2ccc(C(C)(C)O)cn2)nc(S(C)(=O)=O)c1
Result string: 10.38

Query string: For the compound CC(=O)Nc1cc(Nc2cc(C3COCCO3)cc(S(C)(=O)=O)n2)c(-c2ccc3c(n2)OCC(C)(C)O3)cn1 (racemic) [Example Q51] , give its measured pIC50 value.
Result string: 10.47

Query string: Identify pIC50 associated with the compound CC(=O)Nc1cc(Nc2cc(OCC3(C)COC3)cc(S(C)(=O)=O)n2)c(-c2ccc3c(n2)OCC(C)(C)O3)cn1
Result string: 10.59

Query string: Identify measured pIC50 corresponding to CC(=O)Nc1cc(Nc2cccc(S(C)(=O)=O)n2)c(-c2cccnc2)cn1
Result string: 8.24

Query string: Fill in pIC50 for record CC(=O)Nc1cc(Nc2cc(C)cc(S(C)(=O)=O)n2)c(-c2ccc(O[C@H]3CCOC3)cn2)cn1
Result string: 10.33

Query string: For CC(=O)Nc1cc(Nc2cc(OC3COC3)cc(S(C)(=O)=O)n2)c(-c2ccn(C)n2)cn1 , write its pIC50.
Result string: 10.43

Query string: Write down pIC50 measured for item CC(=O)Nc1cc(Nc2cc(C)cc(S(C)(=O)=O)n2)c(-c2cc3n(n2)CCOC3)cn1
Result string: 10.66

Query string: Tell me its pIC50 given CC(=O)Nc1cc(Nc2cc(OCCO)cc(S(C)(=O)=O)c2)c(-c2ccn(C)n2)cn1 as the entry.
Result string: 10.36

Query string: Return the recorded pIC50 value; entry: CC(=O)Nc1cc(Nc2cc(C#N)cc(S(C)(=O)=O)n2)c(-c2ccn(C)n2)cn1
Result string: 10.64

Query string: Tell me pIC50 reported for CO[C@H]1C[C@H](c2cc(Nc3cc(NC(C)=O)ncc3-c3ccc4c(n3)OCC(C)(C)O4)nc(S(C)(=O)=O)c2)C1
Result string: 10.43

Query string: Recall and state the measured pIC50 for CC(=O)Nc1cc(Nc2cc(Cl)cc(S(C)(=O)=O)c2)c(-c2ccn(C)n2)cn1 .
Result string: 10.12

Query string: Tell us which pIC50 value is on record for CCOc1cc(Nc2cc(NC(C)=O)ncc2-c2cc(C)n(C)n2)nc(S(C)(=O)=O)c1
Result string: 10.62

Query string: Tell me its pIC50 given CCn1ccc(-c2cnc(NC(C)=O)cc2Nc2cc(OCCOC)cc(S(C)(=O)=O)c2)n1 as the entry.
Result string: 10.52

----------
target: TYK2-JH2 (aa 575-869, in-house) protein (Homo sapiens, UniProt P29597); construct: TYK2-JH2 (aa 575-869, in-house) protein; made in house; experiment: TYK2-JH2 biochemical assay (HTRF probe displacement); format: binding; conditions: Biochemical assay; read-out: TYK2-JH2 IC50
Assay readout: IC50
Form entry: enter the amount, then its unit.

Example entries and their recorded answers appear below.
Compound string	IC50
CC(=O)Nc1cc(Nc2cc(O[C@H]3C[C@@H](O)C3)cc(S(C)(=O)=O)n2)c(-c2ccc(C(C)(C)O)cn2)cn1	0.03 nM
COCCOc1cc(Nc2cc(NC(C)=O)ncc2-c2ccn(C3CC3)n2)nc(S(C)(=O)=O)c1	0.026 nM
CC(=O)Nc1cc(Nc2cccc(S(C)(=O)=O)n2)c(-c2cccnn2)cn1	0.027 nM

Then there is this compound:
Query string: Write down the reported IC50 (system: TYK2-JH2 (aa 575-869, in-house) protein (Homo sapiens, UniProt P29597)) of CCn1ccc(-c2cnc(NC(C)=O)cc2Nc2cccc(S(C)(=O)=O)n2)n1
Result string: 0.032 nM

----------
system: pSTAT5/GM-CSF; test: pSTAT5/GM-CSF cellular assay (JAK2 selectivity); assay type: cell-based
Assay readout: IC50 (nM)
Kindly answer with a numeric value in nM, unit omitted.

Compound string	Measured target	IC50 (nM)
COC1CN(c2cc(Nc3cc(NC(C)=O)ncc3-c3ccc(N4C[C@@H](C)O[C@@H](C)C4)cn3)nc(S(C)(=O)=O)c2)C1	pSTAT5/GM-CSF	1060
CC(=O)Nc1cc(Nc2cccc(S(C)(=O)=O)n2)c(-c2cc(N3CCOCC3)n(C)n2)cn1	pSTAT5/GM-CSF	1210
CC(=O)Nc1cc(Nc2cccc(S(C)(=O)=O)n2)c(-c2ccc(C(C)(C)O)cn2)cn1	pSTAT5/GM-CSF	1680

We now examine a further molecule.
Query string: For the molecule CC(=O)Nc1cc(Nc2cc(C)cc(S(C)(=O)=O)n2)c(-c2ccc3c(n2)OCC(C)(C)O3)cn1 , give its measured IC50 value.
Result string: 1570
